test: reversal of MRP1-mediated doxorubicin resistance, pilot screen, H69AR cells, doxorubicin co-treatment (AID 601); details: H69AR cells, CellTiter-Glo, 72 h; compound alone cytotoxicity; at 10 µM
Reported endpoint: viability (%)
Give the quantity in %, number only.

Cc1ccc(CNC(=O)COC(=O)c2c(C)noc2C)cc1 : 92.8

Moving on to another compound below.
Lab book: viability of `Cc1ccc(NC(=O)CCC(=O)OCC(F)(F)C(F)F)cc1` noted as 103

###

biological target: Receptor tyrosine-protein kinase erbB-2 (Homo sapiens) (UniProt P04626); experiment: reducers of endogenous Her2 protein level, primary screen, SKBR3 breast tumor cells, AlphaScreen, ATP viability (AID 461); details: 18-24 h, at 10 µM;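 also: lower value means less Her2 protein in the cells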
Sequence (P04626 whole entry, looked up): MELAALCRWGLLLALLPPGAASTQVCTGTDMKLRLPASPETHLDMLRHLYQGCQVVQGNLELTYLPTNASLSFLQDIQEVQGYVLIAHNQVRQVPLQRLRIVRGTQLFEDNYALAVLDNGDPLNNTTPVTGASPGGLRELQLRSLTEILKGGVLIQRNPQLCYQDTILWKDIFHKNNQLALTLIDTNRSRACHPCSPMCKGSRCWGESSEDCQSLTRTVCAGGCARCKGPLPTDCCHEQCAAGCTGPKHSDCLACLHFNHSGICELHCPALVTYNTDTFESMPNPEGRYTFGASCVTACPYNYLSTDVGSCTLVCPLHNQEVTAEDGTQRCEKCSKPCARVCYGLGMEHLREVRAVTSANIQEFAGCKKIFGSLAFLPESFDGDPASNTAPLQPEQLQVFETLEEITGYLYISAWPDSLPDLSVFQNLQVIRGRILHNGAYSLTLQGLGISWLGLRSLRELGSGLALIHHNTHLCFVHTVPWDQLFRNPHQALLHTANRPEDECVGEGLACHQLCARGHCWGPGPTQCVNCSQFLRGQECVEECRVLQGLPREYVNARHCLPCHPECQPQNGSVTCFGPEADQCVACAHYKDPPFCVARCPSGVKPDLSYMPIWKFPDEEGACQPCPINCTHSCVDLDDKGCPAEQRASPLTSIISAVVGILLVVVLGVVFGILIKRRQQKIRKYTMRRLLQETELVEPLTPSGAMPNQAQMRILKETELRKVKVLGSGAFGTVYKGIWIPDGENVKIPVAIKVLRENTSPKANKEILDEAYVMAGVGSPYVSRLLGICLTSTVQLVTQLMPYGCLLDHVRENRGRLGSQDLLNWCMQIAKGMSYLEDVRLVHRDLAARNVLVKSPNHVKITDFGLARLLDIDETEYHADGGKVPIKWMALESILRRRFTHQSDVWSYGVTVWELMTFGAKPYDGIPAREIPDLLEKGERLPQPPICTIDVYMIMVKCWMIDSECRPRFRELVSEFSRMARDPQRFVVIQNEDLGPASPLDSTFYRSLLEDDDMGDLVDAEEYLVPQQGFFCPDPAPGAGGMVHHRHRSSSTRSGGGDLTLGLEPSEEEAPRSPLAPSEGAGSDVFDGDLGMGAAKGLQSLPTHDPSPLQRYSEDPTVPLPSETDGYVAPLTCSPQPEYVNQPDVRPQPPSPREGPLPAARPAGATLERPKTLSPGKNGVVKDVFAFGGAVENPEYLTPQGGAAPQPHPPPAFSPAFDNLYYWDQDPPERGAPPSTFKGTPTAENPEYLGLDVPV
Active and inactive are the calls of the source.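 How the source made its calls: active means Her2 level under about 52% in both replicate screens, with viability over 70% of control (limit read from the data); inconclusive means Her2 under the limit in one screen only, or viability under 70%; inactive means Her2 level above the set limit.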
Result category, one only: 1 (active), -1 (inactive)

The examples below pair each entry with its known result.
COc1ccc(C2C3=C(CC(C)(C)CC3=O)Oc3ncn4nc(-c5cccnc5)nc4c32)cc1 (configuration not stated) : -1
CC(=O)C1=C(O)C(=O)N(Cc2ccco2)C1c1ccc(F)cc1 (configuration not stated) : -1
O=C(Nc1ccon1)c1csc2c1CCCC2 : -1
COC(=O)CNC(=O)c1c(C)cc(=O)oc1C : -1
COc1ccc(C(CC(=O)O)NC(=O)c2ccccc2)cc1OC (configuration not stated) : -1

Answer briefly: the call reported for `O=C(Cn1nnc(-c2cc(Cl)ccc2-n2cnnn2)n1)N1CCCc2ccccc21` in this assay.
-1

Answer briefly: the call reported for `CCCn1cc(SCC(=O)NCc2ccco2)c2ccccc21` in this assay.
-1

Answer briefly: the call reported for `Cc1cc(C)nc(N2CCC(C(=O)NC3CCCCCC3)CC2)n1` in this assay.
-1

Answer briefly: the call reported for `O=C(CSc1nnc(-c2cccnc2)o1)OC1CCCCC1` in this assay.
-1

Answer briefly: the call reported for `CC1CCN(CCCNC(=O)c2cn(C)c3ccc(S(=O)(=O)N4CCCC4)cc3c2=O)CC1` in this assay.
-1

Answer briefly: the call reported for Cc1oc(-c2ccc(Cl)cc2)nc1CS(=O)CC(=O)NCCCN(C)C1CCCCC1 (configuration not stated) in this assay.
-1

###

experiment: reversal of MRP1-mediated doxorubicin resistance, pilot screen, H69AR cells, doxorubicin co-treatment (AID 601); conditions: H69AR cells, CellTiter-Glo, 72 h; compound alone cytotoxicity; at 10 µM
Label key: YES means viability under 90%; NO means viability of 90% or more.

O=C(Nc1ccc(OC(=O)c2ccco2)cc1)c1ccco1 : YES
Cc1ccc(C(C)n2cc(C(=O)NCCN3CCN(C)CC3)nn2)cc1 (stereo not drawn) : YES
Cc1cccc(NC(=O)CSc2nnc(-c3cc(C)n(-c4ccccc4)c3C)o2)c1C : YES
CCC(C)NC(=O)C1(C)CCC(=O)N1Cc1ccccc1OC (stereo not drawn) : NO
CCOC(=O)c1[nH]c2ccc(OC)cc2c1NC(=O)CCN1CCC(C)CC1 : NO
CC(C)(C)n1nnnc1CN1CCC(NC(=O)NC2CCCCC2)CC1 : NO

Consider the compound `CCOc1cc(S(=O)(=O)NCc2ccccn2)c(C)cc1C` . Is its viability strictly less than 90%?
NO

Consider the compound `CN(C(=O)c1ccccn1)c1nnc(-c2ccncc2)s1` . Is its viability strictly less than 90%?
NO

Consider the compound `Cc1ccc(C(=O)Nc2ccc3c(c2)OCO3)cc1S(=O)(=O)N1CCCC1` . Is its viability strictly less than 90%?
YES

###

assay: 384-well plate pilot, post-Golgi transport modulator project, inhibition of yeast transport mutant growth (AID 636); settings: absorbance 615 nm, about 18 h, stronger effect = higher value
Reported endpoint: inhibition (%)
Give the quantity in %, number only.

Nc1nonc1NC(=O)CSc1nc2ccccc2s1 : 6.18
Cc1[nH]c(=O)[nH]c(=O)c1S(=O)(=O)Nc1ccc(Oc2ccccc2)cc1 : -0.66
CCOc1ccc(Oc2nc(Nc3ccc(C)cc3)nc(N(C)C)n2)nn1 : -4.19
Cn1c(Cc2csc(N)n2)nnc1SCC(=O)NCc1ccccc1 : 0.39
Cc1cnc(C(=O)Nc2ccc(-n3cnnn3)cc2)cn1 : -4.93

Lab book: inhibition of COc1ccc(C2c3sc(=O)[nH]c3SC3C4CCC(C4)C23)cc1 (stereo unspecified) noted as 6.4

###

experiment: growth inhibitors of H69AR lung tumor, primary screen, human, duplicate replicates (AID 580); conditions: H69AR lung tumor cells viability, ATP luminescence, 72 h; at 10 µM; stronger effect = lower value;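 also: 100% = mean luminescence of untreated wells and 0% = no signal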
Reported endpoint: viability (%)
Give the quantity in %, number only.

Example results:
O=C1CCc2cc(S(=O)(=O)N3CCC(C(=O)NCc4ccccn4)CC3)ccc2N1 : 96.7
CCn1cc(C(=O)N=c2sc3ccccc3n2C)c(=O)c2ccc(C)nc21 : 95.7
Cc1nn(-c2ccccc2)c(Cl)c1C(=O)NCC(=O)O : 113
Cn1c(=O)oc2cc(S(=O)(=O)N3CCC(C(=O)Nc4ccc(OC(F)(F)F)cc4)CC3)ccc21 : 33

Moving on to another compound below.
Lab book: viability of `CCOC(=O)c1c(NC(=O)CSc2nc3c(c(=O)n(C)c(=O)n3C)n2C(C)C)sc(C)c1C` noted as 89.9

###

test: SK-BR-3 cell growth inhibitors, pilot screen, 24 h, human (AID 572); details: SK-BR-3 viability, CellTiter-Glo luminescence, at 10 µM, stronger effect = lower value;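 also: compound exposure lasted between 18 and 24 h rather than exactly 24 h; 100% = carrier-treated control wells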
Reported endpoint: viability (%)
Give the quantity in %, number only.

Example results:
O=C(CSc1nc(-c2ccccc2)cs1)NC(=O)NCc1ccco1 : 86.5
O=C1c2ccccc2CN1CCNS(=O)(=O)c1ccc(Cl)cc1 : 104
CCC(=O)N(CCCN(C)C)c1nc(-c2cc(OC)ccc2OC)cs1 : 93.5
CCOC(=O)c1c(-c2cccs2)csc1NC(=O)CCCC(=O)O : 110
CCN1CCN(c2ncnc3c2oc2nc(C)c4c(c23)CC(C)(C)OC4)CC1 : 91.5
O=C(NCCO)c1cccc2c1C(=O)c1ccccc1-2 : 97.5
COc1cc(NS(=O)(=O)c2ccc(Br)s2)cc(OC)c1 : 87
CCn1cc(C(=O)Nc2cc3c(cc2NC(C)=O)OCCO3)c(=O)c2ccc(C)nc21 : 96.5

Lab book: viability of COc1ccc(-n2c(Cc3cccn3C)nnc2SCC(=O)NCC2CCCO2)cc1 (stereo unspecified) noted as 100

Lab book: viability of `O=C(c1cc2cc(Cl)cc(Cl)c2oc1=O)N1CCOCC1` noted as 76

Lab book: viability of Cc1ccc(C(C(=O)NC(C)(C)C)N(C(=O)c2csnn2)c2cccc(F)c2)o1 (stereo unspecified) noted as 83.5

###

Let's look at some compounds and their measured Her2 level.
biological target: Receptor tyrosine-protein kinase erbB-2 (Homo sapiens) (UniProt P04626); test: reducers of endogenous Her2 protein level, primary screen, SKBR3 breast tumor cells, AlphaScreen, ATP viability (AID 461); details: 18-24 h, at 10 µM, stronger effect = lower value;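 also: lower value means less Her2 protein in the cells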
Square brackets hold non-standard residues; d marks the D form. Peptide text beside a SMILES is read from it. * marks the point of attachment. ξ: configuration not given here. Piv = CC(C)(C)C(=O)*; ξNva = CCCC(N)C(=O)O
Give the quantity in %, number only.

Example results:
O=C(NC12CC3CC(CC(C3)C1)C2)c1cncc(O)c1 : 89
Cc1ccccc1-c1nc(CS(=O)(=O)CC(=O)NCc2ccc3c(c2)OCO3)c(C)o1 : 89
COC(=O)CCC(=O)Nc1cccc(Cl)c1 : 87
CCCC(NC(=O)CNC(=O)C(C)(C)C)C(=O)O (stereo not drawn) (Piv-Gly-[ξNva]-OH) : 91.5
Cc1oc2cc(O)ccc2c(=O)c1-c1cnn(-c2ccccc2)c1 : 90
CCC(=O)N1CCN=C1SCc1ccc(Cl)cc1 : 93.5
Cn1cnnc1SCC(=O)Nc1ccccc1Sc1ccccc1 : 91.5
Cn1c(=O)cc(SCC(=O)N2CCOCC2)c2ccc(Cl)cc21 : 99.5

Lab book: Her2 level of `O=C(CCCc1cccs1)Nc1nc2c(s1)CCCC2` noted as 74

###

assay: reversal of MRP1-mediated doxorubicin resistance, pilot screen, H69AR cells, doxorubicin co-treatment (AID 601); details: H69AR cells, CellTiter-Glo, 72 h; compound alone cytotoxicity; at 10 µM
Reported endpoint: viability (%)
Give the quantity in %, number only.

Example results:
CCCc1[nH]nc2c1C(c1cccc(OC(=O)c3ccco3)c1)C(C#N)=C(N)O2 (centres undefined) : 95.3
Cc1ccc(-n2ncc3c(Nc4c(C)n(C)n(-c5ccccc5)c4=O)ncnc32)c(C)c1 : 92.3
COc1ccc(-c2nnc(-c3cccs3)o2)cc1OC : 94.6

Moving on to another compound below.
Lab book: viability of `CCc1nnc(NC(=O)c2ccc(COc3ccc(C)cc3)o2)s1` noted as 106

###

assay: reversal of MRP1-mediated doxorubicin resistance, pilot screen, H69AR cells, doxorubicin co-treatment (AID 601); conditions: H69AR cells, CellTiter-Glo, 72 h; compound alone cytotoxicity; at 10 µM
Label key: Condition met means viability under 90%; Condition not met means viability of 90% or more.

CSCCC(NC(=O)c1occc1C)C(=O)O (configuration not stated) : Condition not met
CCC1C(=O)n2nc(-c3ccccc3)cc2N=C1C (configuration not stated) : Condition not met
CC(=O)N1CCN=C1SCc1c(F)cccc1Cl : Condition met
Cc1nc2ccc(CCO)cc2s1 : Condition not met
Cc1cccc(Nc2nc3c(c(=O)n(C)c(=O)n3C)n2Cc2ccccc2)c1 : Condition not met

Consider the compound O=C1CC2CS(=O)(=O)CC2N1c1ccc(Oc2ccccc2)cc1 (configuration not stated) . Is its viability strictly less than 90%?
Condition not met

Consider the compound `CCCOc1ccc(OCCSc2ncccn2)cc1` . Is its viability strictly less than 90%?
Condition not met

Consider the compound `COc1cc(OC)c(OC)cc1CN(C)CCc1ccccn1` . Is its viability strictly less than 90%?
Condition met
